tested_target: Alpha-galactosidase (Coffea arabica)
assay_details: Inhibition of coffee beans alpha-galactosidase assessed as reduction of p-nitrophenol release using p-nitrophenyl glycoside as substrate at 1000 uM by spectrophotometric analysis relative to control
Entries and their inhibition
Record the value in %, omitting the unit from your answer.

Study these solved cases before continuing.
O=C1CCCC=C1CCCCCCC[C@H]1N[C@H](CO)[C@@H](O)[C@@H]1O 19.6
CC(C)(C)c1ccc(CCCCCC[C@@H](O)[C@H]2N[C@H](CO)[C@@H](O)[C@@H]2O)cc1.Cl 5.5
Cl.OC[C@H]1N[C@H]([C@H](O)CCCCCCc2ccc(F)cc2)[C@@H](O)[C@@H]1O 8.6
Cl.OC[C@@H]1N[C@@H]([C@@H](O)CCCCCCc2ccc(F)c(F)c2)[C@H](O)[C@H]1O 8.8
OC[C@@H]1N[C@@H]([C@@H](O)CCCCCCc2ccc(F)cc2)[C@H](O)[C@H]1O 3.6
Cl.OC[C@H]1N[C@H]([C@H](O)CCCCCCc2ccc(F)c(F)c2)[C@@H](O)[C@@H]1O 17.2
OC[C@@H]1N[C@@H]([C@@H](O)CCCCCCc2ccc(Cl)cc2)[C@H](O)[C@H]1O 3.6
OC[C@H]1N[C@H](CCCCCCCc2ccccc2)[C@@H](O)[C@@H]1O 5
Cl.OC[C@@H]1N[C@@H](CCCCCCCc2ccccc2)[C@H](O)[C@H]1O 12.1
Cc1ccc(CCCCCC[C@@H](O)[C@H]2N[C@H](CO)[C@@H](O)[C@@H]2O)cc1 0.9

The reported inhibition of the compound `OC[C@H]1N[C@H]([C@@H](O)CCCCCCc2ccc(F)cc2)[C@@H](O)[C@@H]1O` was 0.6

The reported inhibition of the compound `OC[C@H]1N[C@H]([C@H](O)CCCCCCc2ccc(Cl)cc2)[C@@H](O)[C@@H]1O` was 0

The reported inhibition of the compound `Cc1ccc(CCCCCCC[C@H]2N[C@H](CO)[C@@H](O)[C@@H]2O)cc1.Cl` was 9.7

The reported inhibition of the compound `CC(C)(C)c1ccc(CCCCCCC[C@H]2N[C@H](CO)[C@@H](O)[C@@H]2O)cc1.Cl` was 3.9

The reported inhibition of the compound `OC[C@@H]1N[C@@H]([C@H](O)CCCCCCc2ccc(F)cc2)[C@H](O)[C@H]1O` was 1.6

The reported inhibition of the compound `Cc1ccc(CCCCCC[C@H](O)[C@@H]2N[C@@H](CO)[C@H](O)[C@H]2O)cc1` was 3.6

The reported inhibition of the compound `CC(C)(C)c1ccc(CCCCCC[C@H](O)[C@@H]2N[C@@H](CO)[C@H](O)[C@H]2O)cc1` was 2.6

The reported inhibition of the compound `Cc1ccc(CCCCCC[C@@H](O)[C@@H]2N[C@@H](CO)[C@H](O)[C@H]2O)cc1` was 1.6

---

Entries and their inhibition
System: Helix pomatia
assay_details: Inhibition of snail beta-mannosidase assessed as reduction of p-nitrophenol release using p-nitrophenyl glycoside as substrate at 1000 uM by spectrophotometric analysis relative to control
Record the value in %, omitting the unit from your answer.

Study these solved cases before continuing.
OC[C@@H]1N[C@@H]([C@@H](O)CCCCCCc2ccc(Cl)cc2)[C@H](O)[C@H]1O 0
OC[C@H]1N[C@H]([C@@H](O)CCCCCCc2ccccc2)[C@@H](O)[C@@H]1O 37.6
OC[C@@H]1N[C@@H]([C@@H](O)CCCCCCc2ccc(F)cc2)[C@H](O)[C@H]1O 1.2
Cl.OC[C@H]1N[C@H]([C@@H](O)CCCCCCc2ccc(Cl)cc2)[C@@H](O)[C@@H]1O 45.4

The reported inhibition of the compound `Cl.OC[C@@H]1N[C@@H](CCCCCCCc2ccccc2)[C@H](O)[C@H]1O` was 6.7

The reported inhibition of the compound `OC[C@@H]1N[C@@H]([C@H](O)CCCCCCc2ccc(Cl)cc2)[C@H](O)[C@H]1O` was 0.4

The reported inhibition of the compound `Cl.OC[C@@H]1N[C@@H]([C@@H](O)CCCCCCc2ccc(F)c(F)c2)[C@H](O)[C@H]1O` was 11.9

---

Entries and their pIC50
assay_details: Inhibition of bovine liver beta-glucosidase assessed as reduction of p-nitrophenol release using p-nitrophenyl glycoside as substrate by spectrophotometric analysis
Parameters: species or system Bos taurus
pIC50 (log units): -log10 of the concentration in mol/L.

Study these solved cases before continuing.
CC(C)(C)c1ccc(CCCCCC[C@@H](O)[C@H]2N[C@H](CO)[C@@H](O)[C@@H]2O)cc1.Cl 8.40
Cl.OC[C@@H]1N[C@@H]([C@@H](O)CCCCCCc2ccc(F)c(F)c2)[C@H](O)[C@H]1O 5.07
Cc1ccc(CCCCCCC[C@H]2N[C@H](CO)[C@@H](O)[C@@H]2O)cc1.Cl 7.47

Pending molecule:
The reported pIC50 of the molecule `Cl.OC[C@H]1N[C@H]([C@H](O)CCCCCCc2ccc(F)c(F)c2)[C@@H](O)[C@@H]1O` was 8.15

---

assay_details: Inhibition of bovine liver beta-galactosidase assessed as reduction of p-nitrophenol release using p-nitrophenyl glycoside as substrate by spectrophotometric analysis
Design: species or system Bos taurus
Entries and their log10 IC50
Note the log scale: values are log10 of IC50 expressed in nM.

Cl.OC[C@H]1N[C@H](CCCCCCCc2ccc(F)cc2)[C@@H](O)[C@@H]1O 0.90

The reported log10 IC50 of the compound `Cc1ccc(CCCCCC[C@@H](O)[C@H]2N[C@H](CO)[C@@H](O)[C@@H]2O)cc1` was 0.30

The reported log10 IC50 of the compound `Cc1ccc(CCCCCC[C@@H](O)[C@@H]2N[C@@H](CO)[C@H](O)[C@H]2O)cc1` was 4.66

The reported log10 IC50 of the compound `CC(C)(C)c1ccc(CCCCCC[C@@H](O)[C@@H]2N[C@@H](CO)[C@H](O)[C@H]2O)cc1` was 4.88

---

tested_target: UniProt:Q2KIM0
Sequence (Q2KIM0 whole entry): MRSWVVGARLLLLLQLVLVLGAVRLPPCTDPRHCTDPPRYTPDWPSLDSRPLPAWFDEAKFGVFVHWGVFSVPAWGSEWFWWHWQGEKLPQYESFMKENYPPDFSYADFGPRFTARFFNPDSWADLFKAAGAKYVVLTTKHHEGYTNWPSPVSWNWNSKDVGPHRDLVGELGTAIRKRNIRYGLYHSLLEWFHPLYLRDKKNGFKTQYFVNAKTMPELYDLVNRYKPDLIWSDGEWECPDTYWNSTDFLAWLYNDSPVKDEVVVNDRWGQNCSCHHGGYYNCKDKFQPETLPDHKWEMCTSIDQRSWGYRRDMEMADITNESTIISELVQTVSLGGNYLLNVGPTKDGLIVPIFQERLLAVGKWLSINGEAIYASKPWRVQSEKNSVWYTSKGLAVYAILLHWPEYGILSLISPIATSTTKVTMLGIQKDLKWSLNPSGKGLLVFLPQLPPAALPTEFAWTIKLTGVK
assay_details: Inhibition of bovine kidney alpha-L-fucosidase assessed as reduction of p-nitrophenol release using p-nitrophenyl glycoside as substrate at 1000 uM by spectrophotometric analysis relative to control
Entries and their inhibition
Record the value in %, omitting the unit from your answer.

Note to self: inhibition of `OC[C@@H]1N[C@@H]([C@@H](O)CCCCCCc2ccc(F)cc2)[C@H](O)[C@H]1O` with UniProt:Q2KIM0 was 0

Note to self: inhibition of `OC[C@H]1N[C@H]([C@@H](O)CCCCCCc2ccccc2)[C@@H](O)[C@@H]1O` with UniProt:Q2KIM0 was 0

---

assay_details: Inhibition of bovine liver beta-glucosidase assessed as reduction of p-nitrophenol release using p-nitrophenyl glycoside as substrate by spectrophotometric analysis
Parameters: species or system Bos taurus
pIC50: −log10 of the molar value.
Kind request: treat 7 as inclusive, so pIC50 at 7 or higher is criterion met, anything lower is criterion not met.

Solved entries:
Cl.OC[C@H]1N[C@H](CCCCCCCc2ccc(F)cc2)[C@@H](O)[C@@H]1O criterion met
Cl.OC[C@H]1N[C@H](CCCCCCCc2ccc(Cl)cc2)[C@@H](O)[C@@H]1O criterion met
CC(C)(C)c1ccc(CCCCCC[C@H](O)[C@H]2N[C@H](CO)[C@@H](O)[C@@H]2O)cc1 criterion met
OC[C@H]1N[C@H](CCCCCCCc2ccccc2)[C@@H](O)[C@H]1O criterion not met
OC[C@@H]1N[C@@H]([C@H](O)CCCCCCc2ccc(F)cc2)[C@H](O)[C@H]1O criterion not met

Input line: I'd appreciate it if you could say whether `Cl.OC[C@@H]1N[C@@H](CCCCCCCc2ccccc2)[C@H](O)[C@H]1O` has pIC50 at least equal to 7.
Output line: criterion not met

Input line: I'd appreciate it if you could say whether `Cl.OC[C@H]1N[C@H]([C@H](O)CCCCCCc2ccc(F)cc2)[C@@H](O)[C@@H]1O` has pIC50 at least equal to 7.
Output line: criterion met

Input line: I'd appreciate it if you could say whether `OC[C@@H]1N[C@@H]([C@@H](O)CCCCCCc2ccc(F)cc2)[C@H](O)[C@H]1O` has pIC50 at least equal to 7.
Output line: criterion not met

Input line: I'd appreciate it if you could say whether `Cl.OC[C@H]1N[C@H](CCCCCCCc2cccc(F)c2)[C@@H](O)[C@@H]1O` has pIC50 at least equal to 7.
Output line: criterion met

Input line: I'd appreciate it if you could say whether `OC[C@H]1N[C@H]([C@H](O)CCCCCCc2ccc(Cl)cc2)[C@@H](O)[C@@H]1O` has pIC50 at least equal to 7.
Output line: criterion met

Input line: I'd appreciate it if you could say whether `Cc1ccc(CCCCCC[C@@H](O)[C@H]2N[C@H](CO)[C@@H](O)[C@@H]2O)cc1` has pIC50 at least equal to 7.
Output line: criterion met

Input line: I'd appreciate it if you could say whether `Cc1ccc(CCCCCC[C@H](O)[C@@H]2N[C@@H](CO)[C@H](O)[C@H]2O)cc1` has pIC50 at least equal to 7.
Output line: criterion not met

Input line: I'd appreciate it if you could say whether `OC[C@@H]1N[C@@H]([C@@H](O)CCCCCCc2ccc(Cl)cc2)[C@H](O)[C@H]1O` has pIC50 at least equal to 7.
Output line: criterion not met
